- System: Lolium perenne (LOLPE)
- Protocol Description: B2 Post-Emergence Efficacy - Test 2
- Format: in vivo
- Run Parameters: 500 g/Ha, 15 days after application, 0-100 scale
Herbicidal activity LOLPE: recorded values

Cc1nn(C)c(=O)c(-c2c(F)ccc(Cl)c2CCc2ccccc2C(F)(F)F)c1O [Compound 1.066]
100
Cc1nn(C)c(=O)c(-c2c(F)ccc(Cl)c2CCc2ccc(Cl)cc2)c1OC(=O)C(C)C [Compound 1.089]
90
Cc1nn(C)c(=O)c(-c2c(F)ccc(Cl)c2CCc2ccc(C(F)(F)F)nc2)c1O [Compound 1.042]
90
Cc1nn(C)c(=O)c(-c2c(F)ccc(Cl)c2CCc2ccc(C#N)cc2)c1O [Compound 1.024]
90

Request the reported Herbicidal activity LOLPE associated with Cc1nn(C)c(=O)c(-c2c(F)ccc(Cl)c2CCc2ccc(F)cc2)c1OC(=O)C(C)C [Compound 1.125]
90

Request the reported Herbicidal activity LOLPE associated with Cc1nn(C)c(=O)c(-c2c(F)ccc(Cl)c2CCc2ccc(F)cc2)c1O [Compound 1.048]
90
